Hi there, I'd appreciate the recorded K obs / 1 for every entry that follows.
Target: Chymotrypsin-like elastase family member 2A (Sus scrofa)
Assay: The second order inactivation rate constant expressed as inhibition of porcine pancreatic elastase (PPE).Inhibitor concentrations were 0.04-2.0 mM
A number alone suffices; assume M⁻¹ s⁻¹.

Query: Quick check: K obs / 1 of O=C(Cc1ccccc1)Nc1ccc2c(Cl)c(OCCBr)oc(=O)c2c1 ?
Response: 4950

Query: Quick check: K obs / 1 of O=C(N[C@@H](Cc1ccccc1)C(=O)Nc1ccc2c(Cl)c(OCCBr)oc(=O)c2c1)c1ccccc1 ?
Response: 11

Query: Quick check: K obs / 1 of O=C(Nc1ccc2c(Cl)c(OCCBr)oc(=O)c2c1)NC(c1ccccc1)c1ccccc1 ?
Response: 6
